Value source: ChEMBL document CHEMBL1671838

Test: Bioavailability in rhesus monkey at 1 mg/kg, iv and 5 mg/kg, po
Settings: in vivo
ENDPOINT: bioavailability (%)
Numeric only. Scale: %

Task: Could you tell me which bioavailability is on file for C=C[C@@H]1C[C@]1(NC(=O)[C@@H]1C[C@@H]2CN1C(=O)[C@H](C1CCCCC1)NC(=O)OCC(C)(C)CCCc1cc3c(nccc3cc1OC)O2)C(=O)NS(=O)(=O)C1CC1 ?
Output: 9

* * *

Each entry below carries its reported concentration at 4 h.
Assay: Drug level in Sprague-Dawley rat liver at 5 mg/kg, po after 4 hrs
Assay type: ADME, organism-based
Set-up: dose 5 mg/kg, route oral
Conditions: read-out: Drug uptake
Numeric answer plus unit only.

- MOLECULAR_STRING: "C=C[C@@H]1C[C@]1(NC(=O)[C@@H]1C[C@@H]2CN1C(=O)[C@H](C(C)(C)C)NC(=O)OCCCCCc1cc(OCC)c3ccnc(c3c1)O2)C(=O)NS(=O)(=O)C1CC1"
  concentration at 4 h: "15.2 µM"

Task: Could you tell me which concentration at 4 h is on file for C=C[C@@H]1C[C@]1(NC(=O)[C@@H]1C[C@@H]2CN1C(=O)[C@H](C(C)(C)C)NC(=O)OCCCCCc1cc(OC(F)(F)F)c3ccnc(c3c1)O2)C(=O)NS(=O)(=O)C1CC1 ?
Output: 8.8 µM

Task: Could you tell me which concentration at 4 h is on file for C=C[C@@H]1C[C@]1(NC(=O)[C@@H]1C[C@@H]2CN1C(=O)[C@H](C1CCCC1)NC(=O)OCCC/C=C/c1ccc3ccnc(c3c1)O2)C(=O)NS(=O)(=O)C1CC1 ?
Output: 9.2 µM

* * *

Experiment: Half life in Sprague-Dawley rat at 2 mg/kg, iv
Type: ADME, organism-based
Parameters: dose 2 mg/kg, route intravenous
Details: in vivo
ENDPOINT: half-life (h)
Numeric only. Scale: h

Task: Could you tell me which half-life is on file for C=C[C@@H]1C[C@]1(NC(=O)[C@@H]1C[C@@H]2CN1C(=O)[C@H](C1CCCCC1)NC(=O)OCC(C)(C)CCCc1cc3c(nccc3cc1OC)O2)C(=O)NS(=O)(=O)C1CC1 ?
Output: 5.7

* * *

Test: Clearance in Sprague-Dawley rat at 2 mg/kg, iv
Assay type: ADME, organism-based
Parameters: dose 2 mg/kg, route intravenous
Conditions: in vivo
ENDPOINT: clearance (mL/min/kg)
Numeric only. Scale: mL/min/kg

Task: Could you tell me which clearance is on file for C=C[C@@H]1C[C@]1(NC(=O)[C@@H]1C[C@@H]2CN1C(=O)[C@H](C1CCCCC1)NC(=O)OCC(C)(C)CCCc1cc3c(nccc3cc1OC)O2)C(=O)NS(=O)(=O)C1CC1 ?
Output: 3.4

* * *

Test: Half life in rhesus monkey at 1 mg/kg, iv
Settings: in vivo
ENDPOINT: half-life (h)
Numeric only. Scale: h

Task: Could you tell me which half-life is on file for C=C[C@@H]1C[C@]1(NC(=O)[C@@H]1C[C@@H]2CN1C(=O)[C@H](C1CCCCC1)NC(=O)OCC(C)(C)CCCc1cc3c(nccc3cc1OC)O2)C(=O)NS(=O)(=O)C1CC1 ?
Output: 1.3

* * *

Experiment: Drug level in Beagle dog liver at 5 mg/kg, po after 26 hrs
Format: ADME, organism-based, Canis lupus familiaris
Design: dose 5 mg/kg, route oral
Conditions: read-out: Drug uptake
ENDPOINT: concentration at 26 h (µM)
Numeric only. Scale: µM

Task: Could you tell me which concentration at 26 h is on file for C=C[C@@H]1C[C@]1(NC(=O)[C@@H]1C[C@@H]2CN1C(=O)[C@H](C1CCCCC1)NC(=O)OCC(C)(C)CCCc1cc3c(nccc3cc1OC)O2)C(=O)NS(=O)(=O)C1CC1 ?
Output: 10.3

* * *

Assay: AUC in Sprague-Dawley rat plasma at 5 mg/kg, po after 4 hrs
Type: ADME, organism-based
Parameters: time < 4 hr, dose 5 mg/kg, route oral
ENDPOINT: AUC at 4 h (µM·h)
Numeric only. Scale: µM·h

- MOLECULAR_STRING: "C=C[C@@H]1C[C@]1(NC(=O)[C@@H]1C[C@@H]2CN1C(=O)[C@H](C(C)(C)C)NC(=O)OCCCCCc1cc(OC)c3ccnc(c3c1)O2)C(=O)NS(=O)(=O)C1CC1"
  AUC at 4 h / µM·h: 17.7
- MOLECULAR_STRING: "C=C[C@@H]1C[C@]1(NC(=O)[C@@H]1C[C@@H]2CN1C(=O)[C@H](C(C)(C)C)NC(=O)OCCCCCc1cc3c(nccc3cc1OC)O2)C(=O)NS(=O)(=O)C1CC1"
  AUC at 4 h / µM·h: 9.6
- MOLECULAR_STRING: "C=C[C@@H]1C[C@]1(NC(=O)[C@@H]1C[C@@H]2CN1C(=O)[C@H](Cc1ccccc1)NC(=O)OCCC/C=C/c1ccc3ccnc(c3c1)O2)C(=O)NS(=O)(=O)C1CC1"
  AUC at 4 h / µM·h: 0.43
- MOLECULAR_STRING: "C=C[C@@H]1C[C@]1(NC(=O)[C@@H]1C[C@@H]2CN1C(=O)[C@H](C1Cc3ccccc3C1)NC(=O)OCCC/C=C/c1ccc3ccnc(c3c1)O2)C(=O)NS(=O)(=O)C1CC1"
  AUC at 4 h / µM·h: 0.15
- MOLECULAR_STRING: "C=C[C@@H]1C[C@]1(NC(=O)[C@@H]1C[C@@H]2CN1C(=O)[C@H](C1CCOCC1)NC(=O)OCCC/C=C/c1ccc3ccnc(c3c1)O2)C(=O)NS(=O)(=O)C1CC1"
  AUC at 4 h / µM·h: 0.5
- MOLECULAR_STRING: "C=C[C@@H]1C[C@]1(NC(=O)[C@@H]1C[C@@H]2CN1C(=O)[C@H](C1CCCCC1)NC(=O)OCCCCCc1cc(OC)c3ccnc(c3c1)O2)C(=O)NS(=O)(=O)C1CC1"
  AUC at 4 h / µM·h: 2.5

Next compound, please.
Task: Could you tell me which AUC at 4 h is on file for C=C[C@@H]1C[C@]1(NC(=O)[C@@H]1C[C@@H]2CN1C(=O)[C@H](C(C)(C)C)NC(=O)OCCCCCc1cc(I)c3ccnc(c3c1)O2)C(=O)NS(=O)(=O)C1CC1 ?
Output: 1.4

* * *

Test: Half life in Beagle dog at 2 mg/kg, iv
Type: ADME, organism-based, Canis lupus familiaris
Design: dose 2 mg/kg, route intravenous
Conditions: in vivo
ENDPOINT: half-life (h)
Numeric only. Scale: h

Task: Could you tell me which half-life is on file for C=C[C@@H]1C[C@]1(NC(=O)[C@@H]1C[C@@H]2CN1C(=O)[C@H](C1CCCCC1)NC(=O)OCC(C)(C)CCCc1cc3c(nccc3cc1OC)O2)C(=O)NS(=O)(=O)C1CC1 ?
Output: 2.5

* * *

Assay: Cmax in Beagle dog at 5 mg/kg, po
Format: ADME, organism-based, Canis lupus familiaris
Parameters: dose 5 mg/kg, route oral
Conditions: in vivo
ENDPOINT: Cmax (µM)
Numeric only. Scale: µM

Task: Could you tell me which Cmax is on file for C=C[C@@H]1C[C@]1(NC(=O)[C@@H]1C[C@@H]2CN1C(=O)[C@H](C1CCCCC1)NC(=O)OCC(C)(C)CCCc1cc3c(nccc3cc1OC)O2)C(=O)NS(=O)(=O)C1CC1 ?
Output: 4

* * *

Experiment: Bioavailability in Sprague-Dawley rat at 2 mg/kg, iv and 5 mg/kg, po
Assay type: ADME, organism-based
Details: in vivo
ENDPOINT: bioavailability
Numeric answer plus unit only.

Task: Could you tell me which bioavailability is on file for C=C[C@@H]1C[C@]1(NC(=O)[C@@H]1C[C@@H]2CN1C(=O)[C@H](C1CCCCC1)NC(=O)OCC(C)(C)CCCc1cc3c(nccc3cc1OC)O2)C(=O)NS(=O)(=O)C1CC1 ?
Output: 37%

* * *

Experiment: AUC in Sprague-Dawley rat plasma at 5 mg/kg, po after 4 hrs
Format: ADME, organism-based
Design: time < 4 hr, dose 5 mg/kg, route oral
Returns one of condition met or condition not met; condition met when AUC at 4 h is >= 2000 nM·h.

// known answers, use as guide
- MOLECULAR_STRING: "C=C[C@@H]1C[C@]1(NC(=O)[C@@H]1C[C@@H]2CN1C(=O)[C@H](C1CCCCC1)NC(=O)OCCCCCc1ccc3ccnc(c3c1)O2)C(=O)NS(=O)(=O)C1CC1"
  ASSIGNED_CATEGORY: "condition met"
- MOLECULAR_STRING: "C=C[C@@H]1C[C@]1(NC(=O)[C@@H]1C[C@@H]2CN1C(=O)[C@H](C1CCCC1)NC(=O)OCCC/C=C/c1ccc3ccnc(c3c1)O2)C(=O)NS(=O)(=O)C1CC1"
  ASSIGNED_CATEGORY: "condition met"

Task: Please indicate if the recorded AUC at 4 h for C=C[C@@H]1C[C@]1(NC(=O)[C@@H]1C[C@@H]2CN1C(=O)[C@H](C1CCCCC1)NC(=O)OCCC/C=C/c1ccc3ccnc(c3c1)O2)C(=O)NS(=O)(=O)C1CC1 meets or exceeds 2000 nM·h.
Output: condition not met

Task: Please indicate if the recorded AUC at 4 h for C=C[C@@H]1C[C@]1(NC(=O)[C@@H]1C[C@@H]2CN1C(=O)[C@H](C(C)(C)C)NC(=O)OCCCCCc1cc(CC)c3ccnc(c3c1)O2)C(=O)NS(=O)(=O)C1CC1 meets or exceeds 2000 nM·h.
Output: condition met

Task: Please indicate if the recorded AUC at 4 h for C=C[C@@H]1C[C@]1(NC(=O)[C@@H]1C[C@@H]2CN1C(=O)[C@H](C(C)(C)C)NC(=O)OCCCCCc1cc(SC)c3ccnc(c3c1)O2)C(=O)NS(=O)(=O)C1CC1 meets or exceeds 2000 nM·h.
Output: condition not met

Task: Please indicate if the recorded AUC at 4 h for C=C[C@@H]1C[C@]1(NC(=O)[C@@H]1C[C@@H]2CN1C(=O)[C@H](C1CCCCC1)NC(=O)OCC(C)(C)CCCc1cc3c(nccc3cc1OC)O2)C(=O)NS(=O)(=O)C1CC1 meets or exceeds 2000 nM·h.
Output: condition met

Task: Please indicate if the recorded AUC at 4 h for C=C[C@@H]1C[C@]1(NC(=O)[C@@H]1C[C@@H]2CN1C(=O)[C@H](C1CCCC1)NC(=O)OCCCCCc1cc3c(nccc3cc1OC)O2)C(=O)NS(=O)(=O)C1CC1 meets or exceeds 2000 nM·h.
Output: condition met
